experiment summary: NCI Yeast Anticancer Drug Screen. Data for the mec2-1 strain (AID 157)
cond: S. cerevisiae mec2-1 strain, at 5.0 µM (retest, dose inferred, filed as 0.5), stronger effect = higher value
The panel holds about 79,000 compounds, 15% with a hit somewhere; the sample as a whole holds those more often. Activity calls are given as the source filed them. No stated cut-off is given here; in the data, active means growth inhibition above about 70%; inactive means the rest.
property: growth inhibition

Ask: What measured growth inhibition goes with `CSC(=S)n1nc(-c2cccs2)c(N=Nc2ccccc2)c1C(F)(F)F` ?
Reply: -1% (inactive)

Ask: Entry OC(CCN1CCOCC1)c1ccc(Sc2ccccc2)cc1 (centres undefined) please
Reply: 46% (inactive)

Ask: Same again, this time with `COc1c(I)cc(I)c(O)c1I`
Reply: 10% (inactive)

Ask: Also, `O=C(Nc1cccc(Cl)c1)c1ccc([N+](=O)[O-])cc1` please.
Reply: -11% (inactive)

Ask: Try this compound next: `Cc1csc(N)[n+]1CCC(=O)[O-]`
Reply: -1% (inactive)

Ask: Next: COc1ccc(C(C)c2cc3c(cc2O)OCO3)cc1 (centres undefined)
Reply: -8% (inactive)

Ask: # repeat for CC12C=C3CC(OC(=O)c4ccccc4)CCC3(O1)c1ccccc12 (centres undefined)
Reply: -1% (inactive)

Ask: Another: `CCCCCCCCCCCC(=O)OCC(C)C`
Reply: -7% (inactive)

Ask: Please answer likewise for `O=[N+]([O-])c1cnc(Sc2cncc[n+]2[O-])s1`
Reply: 100% (active)

Ask: Now the same for `CNC(=O)N(C)/N=C/c1ccc([N+](=O)[O-])o1`
Reply: 4% (inactive)

Ask: Can you handle `CSC(=Nc1ccccc1)/N=C(\SCc1ccccc1)N(C)C` next?
Reply: 26% (inactive)

Ask: Then this compound: `CN(C)CCNc1ccc([N+](=O)[O-])c2nc3ccccc3c(N)c12`
Reply: -37% (inactive)

Ask: Item: `Clc1ccc(CNc2ccc(Cl)c(Cl)c2)cc1`
Reply: 36% (inactive)

Ask: Also `Cc1nc(C(N)=S)sc1C(=O)CC(=O)C(=O)Nc1nc2ccccc2[nH]1` ?
Reply: 11% (inactive)

Hey, just so you know, these numbers are from PubChem BioAssay (NCI).
